Hey, just so you know, these numbers are from PubChem BioAssay.

- Experimental Target: Epidermal growth factor receptor (Homo sapiens)
- Measurement Notes: EGFR binders on small-molecule microarrays, primary screen, biochemical, small-molecule microarray, 635 nm fluorescence (AID 1104);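 note: score merges 667 nm emission intensity with spot signal to noise over triplicate slides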
- Test Conditions: EGFR binding, higher = more signal
Please provide measured composite z-score for the entries that follow.
Answers are plain numbers.

Below: 2 compounds and their reported composite z-score.
Entry COCC(=C=CC[C@H](O)c1ccc(OCCO)cc1)C[C@H](O)c1cc(Cl)cc(Cl)c1O ; assay system Epidermal growth factor receptor (Homo sapiens); composite z-score recorded at 0.0404

Entry COCCOC(=O)N1C(=O)[C@@]2(c3cc(C#Cc4ccc(OC)cc4)ccc31)[C@H](C(=O)N1CCN(c3ncccn3)CC1)[C@H]1C(=O)O[C@H](c3ccccc3)[C@H](c3ccccc3)N1[C@@H]2c1ccc(O)cc1 ; assay system Epidermal growth factor receptor (Homo sapiens); composite z-score recorded at -0.026

Quick batch: composite z-score for everything below.
1. O=C1O[C@@H](c2ccccc2)[C@@H](c2ccccc2)N2[C@@H](c3ccc(O)cc3)[C@]3(C(=O)Nc4ccc(C#CC5=CCCCC5)cc43)[C@@H](C(=O)O)[C@H]12
2. CN(C)CCCCCCNC(=O)[C@H]1C[C@H]2C(=O)N[C@@H](CCCCN)C(=O)N2[C@H]1c1ccc(O)cc1

// result
1: 0.035; 2: 1.6

---

- Measurement Notes: A549 cell viability effects, profiling panel, calcein-AM fluorescence, 48 h, basal (AID 1162); note: test concentration not given here
- Test Conditions: higher = more signal
Measurement Name: z-score
One number for each entry.

Quick batch: z-score for everything below.
1. CN(C)CCCCNC(=O)[C@H]1C[C@H]2C(=O)N[C@@H](Cc3ccccc3)C(=O)N2[C@H]1c1ccc(O)cc1
2. [N-]=[N+]=NCc1ccccc1C[C@]1(C(=O)NCCN2CCOCC2)N=C(c2ccc(OCCCO)cc2)O[C@H]1c1ccccc1N=[N+]=[N-]
3. O=C1O[C@@H](c2ccccc2)[C@@H](c2ccccc2)N2[C@@H](c3ccc(O)cc3)[C@]3(C(=O)Nc4ccc(C#CC5=CCCCC5)cc43)[C@@H](C(=O)O)[C@H]12

// result
-0.451
-0.872
1.09

Quick batch: z-score for everything below.
1. COc1ccc(C#Cc2ccc3c(c2)[C@]2(C(=O)N3)[C@H](c3ccc(O)cc3)N3[C@H](c4ccccc4)[C@H](c4ccccc4)OC(=O)[C@H]3[C@@H]2C(=O)N2CCCCCCC2)cc1
2. O=C1OCCC/C=C\[C@H]2OC34C=CCN(Cn5nnc6ccccc65)C(=O)[C@H]3N(CCCCCO)C(=O)[C@@H]4C12 (stereo partly specified)

// result
1: 0.334; 2: -0.452

Lab note: measured z-score of CCOC(=O)[C@H]1C[C@H]2O[C@@]23C[C@H]1C(=O)N1CCCC1[C@@H]3O[Si](C)(C)C(C)(C)C (stereo partly specified) was -0.486

---

- Measurement Notes: CREB reporter modulators without forskolin, primary screen, cell-based, PC12, CRE-LacZ reporter, unstimulated (AID 1145)
- Test Conditions: no forskolin, luminescence, 4.5 h, called active from +8 up or from −8 down
The source made the active and inactive calls.
Tick one outcome: yes (active), no (inactive)

The following compounds have reported results that may help.
// query Look up the recorded call for COCC(=C=CC[C@H](O)c1ccc(OCCO)cc1)C[C@H](O)c1cc(Cl)cc(Cl)c1O in this test.
// result yes

// query Look up the recorded call for O=C/C=C/c1ccc2c(c1)OCO2 in this test.
// result no

// query Look up the recorded call for CCCCCN1CC=CC23O[C@@H]4/C=C\CCC(C)OC(=O)C4[C@H]2C(=O)N(CCCCCO)[C@@H]3C1=O (some centres undefined) in this test.
// result no

Moving on to another compound below.
// query Look up the recorded call for C=CCOC(=O)[C@H]1[C@@H]2C(=O)O[C@@H](c3ccccc3)[C@@H](c3ccccc3)N2[C@@H](c2ccc(OCCOC(=O)[C@@H]3C[C@@H]4C(=O)N5CCC[C@H]5C(=O)N4[C@@H]3c3ccc(O)cc3)cc2)[C@]12C(=O)Nc1ccccc12 in this test.
// result no

---

- Measurement Notes: MM1S cell viability effects, profiling panel, calcein-AM fluorescence, 48 h, basal (AID 1165);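 note: viability of MM1S multiple myeloma cells under basal unstimulated conditions; test concentration not given here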
- Test Conditions: higher = more signal
Measurement Name: z-score
One number for each entry.

Below: 8 compounds and their reported z-score.
Lab note: measured z-score of COCCOC(=O)N1C(=O)[C@@]2(c3cc(C#CCCO)ccc31)[C@H](C(=O)NC[C@H](O)c1ccccc1)[C@H]1C(=O)O[C@H](c3ccccc3)[C@H](c3ccccc3)N1[C@@H]2c1ccc(O)cc1 was 0.715

Lab note: measured z-score of CCOC(=O)C1=C[C@@H](CC)N(S(=O)(=O)c2ccc(C)cc2)[C@H]1c1ccccc1 was -0.922

Lab note: measured z-score of CC(C)C[C@@H]1NC(=O)[C@H]2C[C@@H](C(=O)NCCCCCNC(=O)CS)[C@@H](c3cccc(OCCO)c3)N2C1=O was -1.11

Lab note: measured z-score of O=C1C2C=CC(C(O)c3cccs3)N(Nc3ccccc3F)C2C(=O)N1c1ccccc1 (stereo unspecified) was 0.46

Lab note: measured z-score of Cc1ccc(F)cc1S(=O)(=O)N[C@@H]1CCN(Cc2ccc(-c3ccccc3)cc2)C1 was -3.15

Lab note: measured z-score of CS(=O)(=O)CCOC(=O)C1=CC(c2ccc(CO)cc2)=CC(C2CC2)N(Cc2cc3c(cc2Br)OCO3)C=C1C(=O)OCCS(C)(=O)=O (stereo unspecified) was -2.68

Lab note: measured z-score of CCCN1C(=O)[C@@]2(CCC(=O)OC(C)(C)C)N=C(c3ccc(OCCCO)cc3)O[C@H]2c2ccccc21 was -3.47

Lab note: measured z-score of [N-]=[N+]=NCc1ccccc1C[C@]1(C(=O)O)N=C(c2ccc(OCCCO)cc2)O[C@H]1c1ccccc1 was -1.19

Quick batch: z-score for everything below.
1. O=C/C=C/c1ccc(Cl)cc1
2. COc1ccc([Si](C)(C)[C@@H]2[C@@H](CC(=O)N3CCC[C@H]3CO)O[C@]3(C(=O)N(C)c4c(Br)cc(C)cc43)[C@H]2C)cc1
3. COC(=O)[C@@]1(Cc2ccc(OC)cc2)[C@H]2c3cc(C(=O)N4CCCC4)n(Cc4ccccn4)c3C[C@H]2CN1C(=O)c1ccccc1

// result
[-3.17, -0.929, -1.9]

Quick batch: z-score for everything below.
1. O=C(CS)NCCCCCCNC(=O)[C@@H]1C[C@@H]2C(=O)N3CCC[C@H]3C(=O)N2[C@@H]1c1ccc(O)cc1
2. COc1ccc(C(=O)Nc2cccc(CN3C(=O)[C@]4(O[C@H](CC(=O)N5CCC[C@H]5CO)[C@@H]([Si](C)(C)c5ccc(OC)cc5)[C@@H]4C)c4ccccc43)c2)cc1
3. CCCNC(=O)[C@@H]1c2ccccc2C(=O)N(Cc2ccccc2)[C@H]1c1ccc(CO)cc1

// result
1: 0.16; 2: -2.71; 3: -0.183

Quick batch: z-score for everything below.
1. C=CCNC(=O)[C@@H]1[C@H]2C(=O)O[C@H](c3ccccc3)[C@H](c3ccccc3)N2[C@H](c2ccc(OCCO)cc2)[C@@]12C(=O)Nc1ccccc12
2. O=C1O[C@H](c2ccccc2)[C@H](c2ccccc2)N2[C@H]1[C@@H](C(=O)Nc1nc3ccccc3s1)[C@]1(C(=O)Nc3ccccc31)[C@H]2c1ccc(O)cc1

// result
1. 0.491
2. -3.38

Quick batch: z-score for everything below.
1. NCCCCCNC(=O)[C@H]1C[C@H]2C(=O)NCC(=O)N2[C@H]1c1cccc(OCCO)c1
2. COc1ccc(NN2C(C(O)c3ccc(OC)c(OCc4ccccc4)c3)C=CC3C(=O)N(C4CCCCC4)C(=O)C32)cc1 (stereo unspecified)
3. CCOC(=O)C[C@H]1[C@H](OC(=O)c2ccccc2-c2ccccc2)[C@@H](NC(=O)Cc2ccc(OC)cc2)c2cc(OCCCO)ccc2N1C(=O)c1ccccc1
4. CN1C(=O)C2C(C1=O)C1C=C(CCCO)C2C(c2cccs2)N1C (stereo unspecified)
5. COCC1=C2[C@@H](CCc3ccccc3)OB(O)C[C@@H]2[C@@H]2C(=O)N(Cc3ccccc3)C(=O)[C@@H]2C1
6. COC(=O)C[C@H]1O[C@]2(C(=O)N(Cc3ccccc3)c3ccc(NC(C)=O)cc32)[C@@H](C)[C@@H]1[Si](C)(C)c1ccc(OC)cc1
7. COCCCNC(=O)[C@@]1(C)c2ccccc2C(=O)N(Cc2cc(C(F)(F)F)cc(C(F)(F)F)c2)[C@H]1c1ccc(CO)cc1

// result
1. 0.892
2. -0.257
3. -0.0609
4. 1.59
5. -1.51
6. 0.0926
7. 0.384

---

- Tested on: Lefty1
- Measurement Notes: Lefty1 binders on small-molecule microarrays, primary screen, biochemical, small-molecule microarray, 635/667 nm fluorescence (AID 1139)
- Test Conditions: small-molecule microarray binding, fluorescence 635/667; higher = more signal
Measurement Name: composite z-score
Give bare numbers.

Entry CCOC(=O)C1=C[C@@H](C(C)C)N(S(=O)(=O)c2ccc(C)cc2)[C@H]1c1ccc(C(C)C)cc1 ; assay system Lefty1; composite z-score recorded at 0.752

Entry C=CCOC(=O)[C@@H]1[C@H]2C(=O)O[C@H](c3ccccc3)[C@H](c3ccccc3)N2[C@H](c2ccc(OCCOC(=O)[C@@H]3C[C@@H]4C(=O)NCC(=O)N4[C@@H]3c3cccc(OCCO)c3)cc2)[C@@]12C(=O)Nc1ccc(I)cc12 ; assay system Lefty1; composite z-score recorded at 0.914

Entry COC(=O)C(CC#Cc1ccc2c(c1)[C@]1(C(=O)N2)[C@H](c2ccc(OCCO)cc2)N2[C@H](c3ccccc3)[C@H](c3ccccc3)OC(=O)[C@H]2[C@@H]1C(=O)NC[C@H](O)c1ccccc1)C(=O)OC ; assay system Lefty1; composite z-score recorded at 0.346

Quick batch: composite z-score for everything below.
1. COCCOC(=O)N1C(=O)[C@@]2(c3cc(C#Cc4ccc(OC)cc4)ccc31)[C@H](C(=O)N1CCN(c3ncccn3)CC1)[C@H]1C(=O)O[C@H](c3ccccc3)[C@H](c3ccccc3)N1[C@@H]2c1ccc(O)cc1
2. COC(=O)[C@@]1(Cc2ccccc2)N=C(c2ccc(OCCCO)cc2)O[C@H]1c1ccccc1N=[N+]=[N-]
3. COc1ccc(CCN2C(=O)[C@@]3(Cc4ccccc42)c2ccccc2C(=O)N(Cc2ccccc2Cl)[C@H]3c2ccc(CO)cc2)cc1
4. CN(C)C(=O)[C@]1(CCC(=O)OC(C)(C)C)N=C(c2ccc(OCCCO)cc2)O[C@@H]1c1ccccc1N=[N+]=[N-]
5. Cc1ccc([C@H]2C(C(=O)O)=C[C@@H](C)N2S(=O)(=O)c2ccc(C)cc2)cc1
6. CCCNC(=O)[C@@H]1c2ccccc2C(=O)N(Cc2ccccc2)[C@H]1c1ccc(CO)cc1
7. Cc1ccc(S[C@]2(C(=O)NCC(C)C)CC(=O)N(Cc3ccccc3Cl)[C@@H]2c2ccc(CO)cc2)cc1
8. NCCCCCCNC(=O)[C@H]1C[C@H]2C(=O)NCC(=O)N2[C@H]1c1cccc(OCCO)c1

// result
[0.331, 0.718, -1.17, -0.037, -1.15, -0.82, -2.17, 1.04]
